- System: DMS-273
- measurement_notes: NCI tumour cell line growth inhibition, 48 h
Active and inactive are the calls of the source. Rule as the data show it: active = GI50 up to about 1.1 µM and inactive = higher.
Field 'call' accepts active, inactive

The examples below pair each entry with its known result.
Prompt line: Fill in: this test's call for C/C(CC(=O)NCCc1ccccc1)=N\NS(=O)(=O)c1ccc(C)cc1 is ___
Response line: inactive

Prompt line: Fill in: this test's call for O=C1C(=O)c2cc([N+](=O)[O-])ccc2-c2ccc([N+](=O)[O-])cc21 is ___
Response line: active

Prompt line: Fill in: this test's call for CCCC(=O)OCC(O)CO (configuration not stated) is ___
Response line: inactive

Prompt line: Fill in: this test's call for COc1c(Br)cc(Br)c(OC)c1-c1ccc[nH]1 is ___
Response line: inactive

Now examine the next entry.
Prompt line: Fill in: this test's call for CN(C)CC1CCC/C1=N\O (configuration not stated) is ___
Response line: inactive
